Test system: Vero cells
settings: Vero cells; microscopy
Some molecules, each annotated with its measured Cytotoxicity: MCC.

Check out these entries, answers already filled in.
molecule=CC1(C)N=C(N)N=C(N)N1c1ccccc1 meas_value=">100 µM"
molecule="CCCC1N=C(N)N=C(N)N1c1ccc(Cl)cc1 (stereo not shown)" meas_value=">100 µM"
molecule=CCOC(=O)c1ccc(N2C(N)=NC(N)=NC2(C)C)cc1 meas_value=">100 µM"
molecule="CC1(C)N=C(N)N=C(N)N1c1ccc(Cl)cc1 [Compound 1, cycloguanil, reference compound]" meas_value=">100 µM"

For `CC1(C)N=C(N)N=C(Nc2ccc(Cl)cc2)N1` the molecule record lists Cytotoxicity: MCC as >100 µM

Lab book: Cytotoxicity: MCC of NC1=NC(c2ccccc2)N(c2ccc(Cl)cc2)C(N)=N1 (stereo not shown) noted as >100 µM

Briefly, Cytotoxicity: MCC measured for `NC1=NC2(CCCC2)N(c2ccc(Cl)cc2)C(N)=N1` : >100 µM

Quick note, Cytotoxicity: MCC for `CC1(C)N=C(N)N=C(N)N1c1ccc([N+](=O)[O-])cc1` landed at >100 µM

For `CC1(C)N=C(N)N=C(N)N1c1cccc(Br)c1` the molecule record lists Cytotoxicity: MCC as >100 µM

Cytotoxicity: MCC reported for this molecule `COc1ccc(N2C(N)=NC(N)=NC2(C)C)cc1` : >100 µM

---

System: HeLa cells
settings: HeLa cells; microscopy
Entries and their measured Cytotoxicity: MCC follow.

molecule=CC1(C)N=C(N)N=C(N)N1c1cccc(C(F)(F)F)c1 property_name="Cytotoxicity: MCC" meas_value="≥100 µM"
molecule=CC1(C)N=C(N)N=C(Nc2ccc(Cl)cc2)N1 property_name="Cytotoxicity: MCC" meas_value=">100 µM"
molecule=CC1(C)N=C(N)N=C(N)N1c1ccc(Cl)cc1Cl property_name="Cytotoxicity: MCC" meas_value=">100 µM"
molecule=NC1=NC2(CCCC2)N(c2cccc(C(F)(F)F)c2)C(N)=N1 property_name="Cytotoxicity: MCC" meas_value="≥100 µM"
molecule=CCOC(=O)c1ccc(N2C(N)=NC(N)=NC2(C)C)cc1 property_name="Cytotoxicity: MCC" meas_value=">100 µM"

Record `CC1(C)N=C(N)N=C(N)N1c1ccccc1` / HeLa cells, Cytotoxicity: MCC recorded as >100 µM

The observed Cytotoxicity: MCC for CC1(C)N=C(N)N=C(N)N1c1ccc(Cl)cc1 [Compound 1, cycloguanil, reference compound] when tested with HeLa cells stands at >100 µM

Tested on HeLa cells: `CC1(C)N=C(N)N=C(N)N1c1cccc(Br)c1` . Observed Cytotoxicity: MCC: ≥100 µM

[H]/N=C(\N/C(=N/[H])Nc1ccc(Cl)cc1)NC(C)C [Compound 30, proguanil, reference compound] on HeLa cells gives Cytotoxicity: MCC = >100 µM

---

Test system: HeLa cells
settings: HeLa cells; microscopy
# Cytotoxicity: MCC per record follows

Worked examples follow.
compound=NC1=NC2(CCCCC2)N(c2cccc(Cl)c2)C(N)=N1 target_or_system="HeLa cells" meas_value="≥100 µM"
compound=CC1(C)N=C(N)N=C(N)N1c1ccc(F)cc1 target_or_system="HeLa cells" meas_value=">100 µM"
compound=CC1(C)N=C(N)N=C(N)N1c1ccc([N+](=O)[O-])cc1 target_or_system="HeLa cells" meas_value=">100 µM"
compound="CCCC1N=C(N)N=C(N)N1c1ccc(Cl)cc1 (stereo not shown)" target_or_system="HeLa cells" meas_value=">100 µM"
compound="CCC1(C)N=C(N)N=C(N)N1c1ccc(Cl)cc1 (stereo not shown)" target_or_system="HeLa cells" meas_value=">100 µM"
compound="CCc1nc(N)nc(N)c1-c1ccc(Cl)cc1 [Compound 32, pyrimethamine, reference compound]" target_or_system="HeLa cells" meas_value="≥100 µM"
compound=COc1ccc(N2C(N)=NC(N)=NC2(C)C)cc1 target_or_system="HeLa cells" meas_value=">100 µM"
compound=NC1=NC2(CCCCC2)N(c2cccc(C(F)(F)F)c2)C(N)=N1 target_or_system="HeLa cells" meas_value="≥100 µM"
compound=CC1(C)N=C(N)N=C(N)N1c1ccc(C(=O)O)cc1 target_or_system="HeLa cells" meas_value=">100 µM"

Turning now to a further record.
Readout Cytotoxicity: MCC for `CC1(C)N=C(N)N=C(N)N1c1ccc(Br)cc1` , test system HeLa cells, was >100 µM

---

Measured Cytotoxicity MCC of individual entries
Tested on: human airway epithelial Calu-3 cells
settings: data not shown

molecule="CCc1nc(N)nc(N)c1-c1ccc(Cl)cc1 [Compound 32, pyrimethamine, reference compound]" property_name="Cytotoxicity MCC" meas_value="> 100 µM"

GET /value?item= CC1(C)N=C(N)N=C(N)N1c1cccc(Cl)c1 [Compound 11] &field=Cytotoxicity MCC returns > 100 µM

Note to self: Cytotoxicity MCC recorded for CC1(C)N=C(N)N=C(N)N1c1ccc(Cl)c(Cl)c1 [Compound 16] was > 100 µM

The measured Cytotoxicity MCC associated with CC1(C)N=C(N)N=C(N)N1c1cccc(C(F)(F)F)c1 [Compound 14] reads > 100 µM

According to the records, this molecule CC1(C)N=C(N)N=C(N)N1c1cccc(Br)c1 [Compound 13] displays Cytotoxicity MCC of > 100 µM

Measured Cytotoxicity MCC of NC1=NC2(CCCCC2)N(c2cccc(C(F)(F)F)c2)C(N)=N1 [Compound 25] : > 100 µM

For CC1(C)N=C(N)N=C(N)N1c1ccc(Cl)cc1 [Compound 1, cycloguanil, reference compound] the molecule record lists Cytotoxicity MCC as > 100 µM

---

Tested on: Reovirus-1
test-summary: organism not typed
Format: cell-based
settings: Vero, read-out: Antiviral activity: EC50, Reovirus-1
property-name: pEC50
A value of pEC50 is the negative decimal logarithm of a concentration given in moles per litre.

Notebook: COc1c(C)c2c(c(O)c1C/C=C(\C)CCC(=O)O)C(=O)OC2 [Mycophenolic acid] , pEC50 read as 5.74
